Experimental Endpoint: melting point

-- ask What value of measured melting point is listed for Cc1ccc([N+](=O)[O-])c(Cn2nnc3c(-c4ccco4)nc(N)nc32)c1 ?
-- reply 226.6 to 226.9 °C

-- ask And for Nc1nc(-c2ccco2)c2nnn(Cc3cccc(F)c3F)c2n1 ?
-- reply 188.8 to 188.9 °C

-- ask CS(=O)(=O)Cc1cccc(Cn2nnc3c(-c4ccco4)nc(N)nc32)n1 ?
-- reply 238.2 to 238.6 °C

-- ask Entry to check: COc1ccccc1Cn1nnc2c(-c3ccco3)nc(N)nc21
-- reply 212.1 to 214.3 °C

-- ask // same read-out, input: Nc1nc(-c2ccco2)c2nnn(Cc3cc([N+](=O)[O-])cc([N+](=O)[O-])c3)c2n1
-- reply 264.5 to 264.8 °C

---

Items are presented alongside their recorded melting point.

Worked set:
Nc1nc(-c2ccco2)c2nnn(Cc3cccc(CN4C(=O)c5ccccc5C4=O)n3)c2n1; 120.1 to 121 °C
Nc1nc(-c2ccco2)c2nnn(Cc3ccsc3)c2n1; 215.8 to 216.9 °C
CC(c1ccc(C(F)(F)F)cc1)n1nnc2c(-c3ccco3)nc(N)nc21 (stereo not drawn); 167.6 to 168.1 °C
COc1cc(F)c(Cn2nnc3c(-c4ccco4)nc(N)nc32)c(F)c1; 274.2 to 274.3 °C
CC(C)(C)OC(=O)n1ccc2cccc(Cn3nnc4c(-c5ccco5)nc(N)nc43)c21; 176.3 to 176.5 °C
COc1cc(Cn2nnc3c(-c4ccco4)nc(N)nc32)ccc1[N+](=O)[O-]; 209.7 to 209.9 °C

-- ask If you can, please state the reported melting point value of Nc1nc(-c2ccco2)c2nnn(Cc3ccc(Cl)c([N+](=O)[O-])c3)c2n1 .
-- reply 247.4 to 247.5 °C

-- ask // query: Nc1nc(-c2ccco2)c2nnn(Cc3ccc4[nH]ncc4c3)c2n1
-- reply > 300 °C (dec.)

-- ask Please do the same for Nc1nc(-c2ccco2)c2nnn(Cc3ccc(N)c(O)c3)c2n1 as well.
-- reply 239.6 to 239.8 °C

---

Reported Ki, human adenosine A2A receptors (Homo sapiens, UniProt P29274).
Write down the value, and be sure its unit follows.

Previously resolved entries follow.
Nc1nc(-c2ccco2)c2nnn(Cc3cc([N+](=O)[O-])ccc3F)c2n1 [Example 78]; 3 nM
C=Cc1cccc(Cn2nnc3c(-c4ccco4)nc(N)nc32)n1 [Example 202]; 1 nM
CN(C)Cc1cccc(Cn2nnc3c(-c4ccco4)nc(N)nc32)n1 [Example 233]; 4 nM
Cc1cccc(Cn2nnc3c(-c4ccco4)nc(N)nc32)c1[N+](=O)[O-] [Example 92]; 2 nM
Nc1nc(-c2ccco2)c2nnn(Cc3ccccc3F)c2n1 [Example 3]; 3 nM

-- ask Given the entry N#Cc1cccc(Cn2nnc3c(-c4ccco4)nc(N)nc32)c1 [Example 15] , report its measured Ki.
-- reply 4 nM

-- ask Lookup Nc1cccc(Cn2nnc3c(-c4ccco4)nc(N)nc32)c1 [Example 5]
-- reply 3 nM

-- ask Same question, Nc1nc(-c2ccco2)c2nnn(Cc3ccccc3N)c2n1 [Example 13] this time
-- reply 2 nM

-- ask Lookup Nc1nc(-c2ccco2)c2nnn(Cc3cccc(F)c3F)c2n1 [Example 57]
-- reply 2 nM

---

Recorded melting point by entry

// below: answered molecules
Nc1nc(-c2ccco2)c2nnn(Cc3cnccn3)c2n1; 129.1 to 131 °C
Nc1nc(-c2ccco2)c2nnn(Cc3ccc(N)c(F)c3)c2n1; > 200 °C (dec.)
CC(c1cccc(F)c1)n1nnc2c(-c3ccco3)nc(N)nc21 (centres unmarked); 150.3 to 151 °C
CC(C)c1ccc(Cn2nnc3c(-c4ccco4)nc(N)nc32)cn1; 164.3 to 169.3 °C

Continue with the molecule presented below.
-- ask Look at this molecule and give its reported melting point. CC(C)COCc1cccc(Cn2nnc3c(-c4ccco4)nc(N)nc32)n1
-- reply 146.7 to 149.3 °C

---

Experimental Endpoint: melting point

Consider the following illustrative entries.
Nc1nc(-c2ccco2)c2nnn(Cc3cccs3)c2n1; 204.1 to 204.2 °C
CC(C)(C)OC(=O)n1ccc2ccc(Cn3nnc4c(-c5ccco5)nc(N)nc43)cc21; 180 to 180.5 °C
Cc1cnc(Cn2nnc3c(-c4ccco4)nc(N)nc32)cn1; 288.1 to 288.2 °C

Would you kindly look at the next entry?
-- ask I would be grateful if you could share the reported melting point for Nc1nc(-c2ccco2)c2nnn(Cc3ccc(F)c(N)c3)c2n1 .
-- reply 259.7 to 259.8 °C

---

Counter-ions that a name gives are not always drawn.
Experimental Endpoint: melting point

Please review the entries below; each comes with its answer.
CCc1cc(Cn2nnc3c(-c4ccco4)nc(N)nc32)ccn1 [Example 136]; 172.7 to 173.2 °C
Cc1c(N)cccc1Cn1nnc2c(-c3ccco3)nc(N)nc21 [Example 89]; 247.1 to 247.2 °C
Nc1ccc(Cn2nnc3c(-c4ccco4)nc(N)nc32)cc1 [Example 141]; 240.3 to 240.4 °C
CC(=O)Nc1ccc(Cn2nnc3c(-c4ccco4)nc(N)nc32)cc1 [Example 193]; 253.6 to 254 °C
CS(=O)(=O)N(Cc1cccc(Cn2nnc3c(-c4ccco4)nc(N)nc32)n1)Cc1cccc(Cn2nnc3c(-c4ccco4)nc(N)nc32)n1 [Example 237]; 259.3 to 259.4 °C

-- ask Fill in: melting point of Cc1ccc(-c2nc(N)nc3c2nnn3Cc2ccc([N+](=O)[O-])cc2)o1 [Example 268] is ___
-- reply 248.1 to 249 °C

-- ask Param item: Nc1nc(-c2ccco2)c2nnn(Cc3ccccn3)c2n1 [Example 24]
-- reply 196.9 to 197.1 °C

-- ask // repeat for Nc1nc(-c2ccco2)c2nnn(Cc3cccc(F)n3)c2n1 [Example 71] and report
-- reply 228.7 to 228.9 °C

-- ask And the next one, Cc1ccc(-c2nc(N)nc3c2nnn3Cc2ccccc2N)o1 (as salt: hydrochloride) [Example 74] ?
-- reply 214.6 to 215.2 °C

---

List of melting point values.

Answered cases to consult:
Nc1nc(-c2ccco2)c2nnn(Cc3ccc4ccccc4n3)c2n1; 228.9 to 229.9 °C
Cc1ccc(-c2nc(N)nc3c2nnn3Cc2ccc(N)cc2)o1; 219.7 to 220.4 °C
Nc1nc(-c2ccco2)c2nnn(CC(=O)c3ccccc3)c2n1; 257.1 to 257.3 °C
Cc1cccnc1Cn1nnc2c(-c3ccco3)nc(N)nc21; 249.8 to 250 °C
Nc1nc(-c2ccco2)c2nnn(Cc3ccc4cc[nH]c4c3)c2n1; 298.9 to 299 °C

-- ask Quick one: melting point for Nc1nc(-c2ccco2)c2nnn(Cc3cc(F)ccc3[N+](=O)[O-])c2n1 ?
-- reply 258.6 to 258.7 °C

-- ask Field entry: Nc1nc(-c2ccco2)c2nnn(Cc3ccc(Cl)cc3[N+](=O)[O-])c2n1
-- reply > 230 °C

-- ask Try CSCc1cccc(Cn2nnc3c(-c4ccco4)nc(N)nc32)n1 next.
-- reply 168.3 to 168.5 °C

-- ask Follow-up item: Cc1cccc(Cn2nnc3c(-c4ccco4)nc(N)nc32)c1
-- reply 187.3 to 187.7 °C

-- ask What about this compound? COc1ccnc(Cn2nnc3c(-c4ccco4)nc(N)nc32)c1
-- reply 201.1 to 201.2 °C

-- ask Another compound to check: Nc1nc(-c2ccco2)c2nnn(Cc3ccc(Cl)cc3N)c2n1
-- reply 211.4 to 211.6 °C

-- ask Again, but for CC(C)c1cccc(Cn2nnc3c(-c4ccco4)nc(N)nc32)n1
-- reply 188.3 to 188.5 °C

-- ask Consider next the compound CC(=O)NCc1ccccc1Cn1nnc2c(-c3ccco3)nc(N)nc21 in the same way.
-- reply 216.7 to 218.4 °C

-- ask Now give it for NCc1cccc(Cn2nnc3c(-c4ccn[nH]4)nc(N)nc32)c1 too.
-- reply 279.9 to 280.3 °C

-- ask Same lookup for Nc1nc(-c2ccccc2)c2nnn(Cc3cccc([N+](=O)[O-])c3)c2n1 , please.
-- reply 149 to 149.6 °C

-- ask Follow-up item: Cc1ccc(-c2nc(N)nc3[nH]nnc23)o1
-- reply 291.8 to 292 °C

// provenance: patent US7589097B2
